Reference source for all entries: PubChem BioAssay (Tox21)

test: qHTS RealTime-Glo MT Cell Viability Assay in HEK293 cells - 40 hour (AID 1224874); details: RealTime-Glo luminescence; stronger effect = lower value; further: on the % scale 0 is the no-effect control and ±100 the full control effect; nearly all actives have a fitted effect of over 50% in size
Results filed as inconclusive are left out.
ATTRIBUTE_MEASURED: max response (%)
Your answer is read as %, so omit the unit and give the number.

Solved cases (2 shown):
CCCCCCCCCCCCCCCO : 0.0156
O=C(OCCOCCOC(=O)c1ccccc1)c1ccccc1 : -18.1

May I ask what max response has been recorded for CCCCC(CC)COC(=O)C(C#N)=C(c1ccccc1)c1ccccc1 (configuration not stated) ?
-27.4

State the recorded max response for this entry: `NNc1nncc2ccccc12`
2.59

# input compound: `C#C[C@]1(O)CC[C@H]2[C@@H]3CCC4=CC(=O)CC[C@@H]4[C@H]3CC[C@@]21C` ; wanted: its max response
-16

# query: max response of entry `O=C=NCCCCCCN=C=O`
4.38

Quick one: max response of `c1ccc2c(c1)ccc1ccccc12` ?
-10.3

---

Experiment: qHTS assay to identify small molecule agonists of the sonic hedgehog signaling (Shh) pathway - cell viability counter screen (AID 1259366); further: on the % scale 0 is the no-effect control and ±100 the full control effect; nearly all actives have a fitted effect of over 50% in size
Settings: NIH/3T3 Gli1-Luc viability, CellTiter-Fluor, 24 h; series mostly up to 92.4 µM
Text: National Center for Advancing Translational Sciences [NCATS] NIH Chemical Genomics Center [NCGC] U.S. Environmental Protection Agency [EPA] National Institutes of Environmental Health Sciences [NIEHS] National Toxicology Program [NTP] U.S. Food and Drug Administration [FDA] The sonic hedgehog (Shh) pathway is essential for normal embryonic development. Dysregulation of the Shh pathway can cause severe developmental defects in organs. […]
Results filed as inconclusive are left out. The source made the active and inactive calls. Calls follow the shape of the dose curve; as a rule, active = well fitted cell-killing curve with a large enough effect in the repeat runs; inconclusive = weak or mixed curves, or effect the other way; inactive = flat fitted curve, though single readings scatter.
ATTRIBUTE_MEASURED: outcome

Study these solved cases before continuing.
CCCCC(CC)COC(=O)CS (centres undefined) : inactive
CCCCN(CCCC)CCCC : inactive
COCCCOc1ccnc(CS(=O)c2nc3ccccc3[nH]2)c1C (centres undefined) : inactive
c1ccc2c(c1)ccc1ccccc12 : inactive
O=C(OCCOCCOC(=O)c1ccccc1)c1ccccc1 : inactive
C=CCOC(=O)c1ccccc1C(=O)OCC=C : inactive

What does the data say about its outcome? Entry: CCc1ccc(CCOc2ccc(CC3SC(=O)NC3=O)cc2)nc1 (centres undefined)
inactive

Reported outcome for `O=C(O)c1ccc(C(=O)O)cc1` : what is it?
inactive

Please look up its outcome: `O=C(O)CCCCCCCCCCC(=O)O`
inactive

Bench note: what outcome did `c1ccc(OCCOc2ccccc2)cc1` show?
inactive

What value of outcome has been reported for the following compound? `CC(=O)c1ccccc1`
inactive

What outcome value was documented for this compound, `O=C(O)[C@H](O)[C@@H](O)[C@H](O)[C@H](O)CO` ?
inactive

Report outcome for O=C(O)CC(C(=O)O)C(CC(=O)O)C(=O)O (centres undefined) please.
inactive

Reported outcome for `CC(C)c1ccc(S(=O)(=O)O)cc1` : what is it?
inactive

Param item = `CCCC(C)=O` ; retrieve measured outcome.
inactive

Any idea what outcome was measured for `CCCCOC(=O)COc1ccc(Cl)cc1Cl` ?
inactive

outcome lookup needed for `O=C(O)c1cc(=O)c2c(OCC(O)COc3cccc4oc(C(=O)O)cc(=O)c34)cccc2o1` , thanks.
inactive

Look up outcome: `COc1cc(Cc2cnc(N)nc2N)cc(OC)c1OC`
inactive

Which measured outcome value corresponds to `COc1ccc(Cl)cc1C(=O)NCCc1ccc(S(=O)(=O)NC(=O)NC2CCCCC2)cc1` ?
inactive

What value of measured outcome is listed for CC1CCC(C(C)C)C(O)C1 (centres undefined) ?
inactive

Query: outcome; subject: `ON=C1CCCCC1`
inactive

Reported outcome for `CCN(CC)c1ccc(C(=O)c2ccccc2C(=O)O)c(O)c1` : what is it?
inactive

Entry `CCCCCCCCCCCCc1ccccc1` : reported outcome = ?
inactive

For the compound shown here, `Nc1ccccc1[N+](=O)[O-]` , give the reported outcome.
inactive
